Provenance of the data: PubChem BioAssay

Test system: Rat fibroblasts (CREF)
Assay: Peg3 promoter luciferase inhibitors, potency, dose response, cell-based, HeLa, CREF/GAPDH counter-screen panel (AID 624167)
Settings: CREF/GAPDH counter-screens; run 1, dose range 1, at 100 µM (top of the series)
property: inhibition (%)

1) NC(C(=O)O)C1ON=C(Cl)C1O (configuration not stated) | -3.88
2) CCc1ccc(C(=O)Nc2nc3ccccc3[nH]2)cc1 | 98.4
3) COc1cccc(OC)c1C(=O)Nc1cc(C)nn1-c1nc2ccccc2[nH]1 | 2.09
4) C/C(=N\NC(=O)c1c(C)nc2ccccn12)c1ccc(O)cc1O | 49.2
5) CC1CCCN(c2ncnc3c2cnn3-c2ccc(Cl)cc2)C1 (configuration not stated) | 94
6) COc1ccc(/C=C2/CCCC(CN(C)C)C2=O)cc1 (configuration not stated) | 95.5
7) COc1ccc(CCN2C(=O)C=CC2=O)cc1OC | 99.5
8) O=C(COc1ccc(Cl)cc1Cl)Nc1ccccn1 | 101
9) CCC(=O)NC(c1cccs1)c1cc(Cl)c2cccnc2c1O (configuration not stated) | 38.2
10) COc1ccc(Nc2ncnc3ccc(Br)cc23)c(OC)c1 | 44.4
11) COc1ccc(OCc2cccc(C(=O)O)c2)cc1 | 90.9
12) C=CCn1c(C)cc(C(=O)CN2C(=O)c3ccccc3S2(=O)=O)c1C | 99.2
